Recorded Form 1 (%) values for a group of molecules are listed next.
Assay: Stability of ratio of the mixture of desloratadine polymorphic forms on storage (XRPD)
Assay type: physicochemical
Conditions: 25° C., 60% RH; 2 weeks
Give your result in % as a bare value.

Use these answered entries as a reference point.
- Molecule: "Clc1ccc2c(c1)CCc1cccnc1C2=C1CCNCC1 [Example 1 of Stability Tests, desloratadine]"
  Readout Unit: "%"
  Form 1 (%): 53
- Molecule: "Clc1ccc2c(c1)CCc1cccnc1C2=C1CCNCC1 [Example 2 of Stability Tests, desloratadine]"
  Readout Unit: "%"
  Form 1 (%): 61
- Molecule: "Clc1ccc2c(c1)CCc1cccnc1C2=C1CCNCC1 [Example 3 of Stability Tests, desloratadine]"
  Readout Unit: "%"
  Form 1 (%): 74

We next turn to a different molecule, shown below.
Reported Form 1 (%) of Clc1ccc2c(c1)CCc1cccnc1C2=C1CCNCC1 [Example 4 of Stability Tests, desloratadine] : 80

###

Overview of recorded Form 2 (%) for various molecules
Experiment: Stability of ratio of the mixture of desloratadine polymorphic forms on storage (XRPD)
Type: physicochemical
Settings: 40° C., 75% RH; 1 month (4 weeks)
Be sure to follow the number with its unit.

Worked cases, answers included:
- Molecule: "Clc1ccc2c(c1)CCc1cccnc1C2=C1CCNCC1 [Example 3 of Stability Tests, desloratadine]"
  Form 2 (%): "22%"
- Molecule: "Clc1ccc2c(c1)CCc1cccnc1C2=C1CCNCC1 [Example 1 of Stability Tests, desloratadine]"
  Form 2 (%): "50%"
- Molecule: "Clc1ccc2c(c1)CCc1cccnc1C2=C1CCNCC1 [Example 2 of Stability Tests, desloratadine]"
  Form 2 (%): "35%"

Form 2 (%) reading for Clc1ccc2c(c1)CCc1cccnc1C2=C1CCNCC1 [Example 4 of Stability Tests, desloratadine] : 12%

###

Test: Stability under grinding by hand in mortar and pestle (XRD)
Details: grinding by hand in mortar and pestle for one minute

- Compound: "Clc1ccc2c(c1)CCc1cccnc1C2=C1CCNCC1 [Form I, desloratadine, reference compound]"
  change in the XRD pattern after grinding: "stable"
- Compound: "Clc1ccc2c(c1)CCc1cccnc1C2=C1CCNCC1 [Form II, desloratadine, reference compound]"
  change in the XRD pattern after grinding: "stable"

###

Experiment: Stability of ratio of the mixture of desloratadine polymorphic forms on storage (XRPD)
Format: physicochemical
Settings: 40° C., 75% RH; 2 weeks
Examples of compounds with documented Form 2 (%) follow.

Some entries whose results are on file:
- Compound: "Clc1ccc2c(c1)CCc1cccnc1C2=C1CCNCC1 [Example 3 of Stability Tests, desloratadine]"
  Meas Value: "19%"
- Compound: "Clc1ccc2c(c1)CCc1cccnc1C2=C1CCNCC1 [Example 4 of Stability Tests, desloratadine]"
  Meas Value: "18%"
- Compound: "Clc1ccc2c(c1)CCc1cccnc1C2=C1CCNCC1 [Example 2 of Stability Tests, desloratadine]"
  Meas Value: "36%"

Could you now consider this next compound?
Value of measured Form 2 (%) for the entry Clc1ccc2c(c1)CCc1cccnc1C2=C1CCNCC1 [Example 1 of Stability Tests, desloratadine] : 57%

###

Assay: Stability of ratio of the mixture of desloratadine polymorphic forms on storage (XRPD)
Type: physicochemical
Details: 25° C., 60% RH; 1 week
Description: Copper radiation of 1.5418 Å was used. In all cases samples were packed in polyethylene and store above conditions.
Form 1 (%) values by entry
All answers are understood in %, so give the number only.

Worked examples, 3 compounds total:
- Compound: "Clc1ccc2c(c1)CCc1cccnc1C2=C1CCNCC1 [Example 4 of Stability Tests, desloratadine]"
  Measured Parameter: "Form 1 (%)"
  Meas Value: 87
- Compound: "Clc1ccc2c(c1)CCc1cccnc1C2=C1CCNCC1 [Example 3 of Stability Tests, desloratadine]"
  Measured Parameter: "Form 1 (%)"
  Meas Value: 79
- Compound: "Clc1ccc2c(c1)CCc1cccnc1C2=C1CCNCC1 [Example 2 of Stability Tests, desloratadine]"
  Measured Parameter: "Form 1 (%)"
  Meas Value: 65

Consider the additional compound presented here.
Briefly, Form 1 (%) measured for Clc1ccc2c(c1)CCc1cccnc1C2=C1CCNCC1 [Example 1 of Stability Tests, desloratadine] : 59
